The reported numbers originate from patent US20250019385A1.

Test system: Ba/F3 cells KRAS G12C
Protocol Text: Ba/F3 proliferation assay (KRAS G12C)
Assay type: cell-based
Condition Context: Mus musculus, BaF3, 72 h, AlamarBlue viability
Parameter Measured: IC50 (nM)
The answer is to be given in nM; state only the numeric part.

Field: example entries. Status: answers known.
Compound: C[C@H](Oc1nc(-c2noc3c2CCC[C@@]32CCCc3sc(N)c(C#N)c32)nc2c1n(C)c(=O)n2[C@@H]1CCOC1)[C@@H]1CCCN1C [II-2]
Study System: Ba/F3 cells KRAS G12C
Units Symbol: nM
IC50: 4
//
Compound: C[C@H](Oc1nc(-c2noc3c2CCC[C@@]32SCCc3sc(N)c(C#N)c32)nc2c1COC[C@]21CCOC1)[C@@H]1CCCN1C [II-16]
Study System: Ba/F3 cells KRAS G12C
Units Symbol: nM
IC50: 1
//
Compound: C[C@H](Oc1nc(-c2onc3c2CCC[C@@]32CCCc3sc(N)c(C#N)c32)nc2c1N(C)C(=O)CN2[C@@H]1CCOC1)[C@@H]1CCCN1C [I-37]
Study System: Ba/F3 cells KRAS G12C
Units Symbol: nM
IC50: 265
//
Compound: C[C@H](Oc1nc(-c2onc3c2CCC[C@@]32CCCc3sc(N)c(C#N)c32)nc2c1n(C)c(=O)n2[C@@H]1CCCOC1)[C@@H]1CCCN1C [I-12]
Study System: Ba/F3 cells KRAS G12C
Units Symbol: nM
IC50: 4

Please report the recorded IC50 for C[C@H](Oc1nc(-c2onc3c2CCC[C@@]32CCCc3sc(N)c(C#N)c32)nc2c1n(C)c(=O)n2[C@H]1CCC[C@@H]1O)[C@@H]1CCCN1C [I-19] .
406

Please answer likewise for C[C@H](Oc1nc(-c2onc3c2CCC[C@@]32CCCc3sc(N)c(C#N)c32)nc2c1n(C)c(=O)n2[C@H]1CO[C@@H](C)C1)[C@@H]1CC[C@H](C)N1C [I-50]
3

---

Protocol Text: Caco-2 assay (permeability and efflux ratio)
Type: in vitro ADME
Condition Context: human, pH 7.4, Caco-2 efflux ratio PappBA/PappAB, read-out: Caco ER
Please mark 1 if the recorded efflux ratio at 90 min, 10 μM is equal to or greater than 2, and 0 if it falls below.

Compound: C[C@H](Oc1nc(-c2onc3c2CCC[C@@]32CCCc3sc(N)c(C#N)c32)nc2c1CN(C1COC1)C[C@]21CCOC1)[C@@H]1CCCN1C [I-56]
Class Assignment: 1
//
Compound: CO[C@@H]1C[C@@H]([C@H](C)Oc2nc(-c3onc4c3CCC[C@@]43CCCc4sc(N)c(C#N)c43)nc3c2n(C)c(=O)n3[C@@H]2CCOC2)N(C)C1 [I-3]
Class Assignment: 0
//
Compound: C[C@H](Oc1nc(-c2onc3c2CCC[C@@]32CCCc3sc(N)c(C#N)c32)nc2c1n(C)c(=O)n2[C@@H]1CCOC1)[C@@H]1CCCN1C [I-20]
Class Assignment: 1
//
Compound: CO[C@@H]1C[C@@H]([C@H](C)Oc2nc(-c3noc4c3CCC[C@@]43CCCc4sc(N)c(C#N)c43)nc3c2COC[C@]32CCOC2)N(C)C1 [II-11]
Class Assignment: 0
//
Compound: CCn1c(=O)n([C@@H]2CCOC2)c2nc(-c3onc4c3CCC[C@@]43CCCc4sc(N)c(C#N)c43)nc(O[C@@H](C)[C@@H]3CCCN3C)c21 [I-21]
Class Assignment: 1

Decide: efflux ratio at 90 min, 10 μM of C[C@H](Oc1nc(-c2noc3c2CCC[C@@]32CCCc3sc(N)c(C#N)c32)nc2c1n(C)c(=O)n2[C@H]1CO[C@@H](C)C1)[C@@H]1CCCN1C [II-5] >= 2?
1

Please answer likewise for CCn1c(=O)n([C@@H]2CCCOC2)c2nc(-c3onc4c3CCC[C@@]43CCCc4sc(N)c(C#N)c43)nc(O[C@@H](C)[C@@H]3CCCN3C)c21 [I-30]
0

Please answer likewise for C[C@H](Oc1nc(-c2onc3c2CCC[C@@]32CCCc3sc(N)c(C#N)c32)nc2c1n(C)c(=O)n2[C@@H]1CCCOC1)[C@@H]1CCCN1C [I-12]
0

Please answer likewise for C[C@H](Oc1nc(-c2noc3c2CCC[C@@]32CCCc3sc(N)c(C#N)c32)nc2c1COC[C@]21CCOC1)[C@@H]1CCCN1C [II-8]
0

Please answer likewise for C[C@H](Oc1nc(-c2noc3c2CCC[C@@]32CCCc3sc(N)c(C#N)c32)nc2c1CCO[C@]21CCOC1)[C@@H]1CCCN1C [II-9b]
0

Please answer likewise for C[C@H](Oc1nc(-c2onc3c2CCC[C@@]32CCCc3sc(N)c(C#N)c32)nc2c1n(C)c(=O)n2[C@H]1CCOC1)[C@@H]1CCCN1C [I-9]
1

Please answer likewise for C[C@H](Oc1nc(-c2noc3c2CCC[C@@]32CCCc3sc(N)c(C#N)c32)nc2c1CN(C1COC1)C[C@]21CCOC1)[C@@H]1CCCN1C [II-12]
1

Please answer likewise for CO[C@@H]1C[C@@H]([C@H](C)Oc2nc(-c3onc4c3CCC[C@@]43CCCc4sc(N)c(C#N)c43)nc3c2n(C)c(=O)n3[C@H]2COC[C@@H](C)C2)N(C)C1 [I-52]
0

Please answer likewise for C[C@@H]1COC[C@H](n2c(=O)n(C)c3c(O[C@@H](C)[C@@H]4CCCN4C)nc(-c4onc5c4CCC[C@@]54CCCc5sc(N)c(C#N)c54)nc32)C1 [I-44]
1

Please answer likewise for CO[C@H]1CCN(C)[C@@H]1[C@H](C)Oc1nc(-c2noc3c2CCC[C@@]32CCCc3sc(N)c(C#N)c32)nc2c1CN(C1COC1)C[C@]21CCOC1 [II-13]
1

Please answer likewise for C[C@H](Oc1nc(-c2noc3c2CCC[C@@]32SCCc3sc(N)c(C#N)c32)nc2c1COC[C@]21CCOC1)[C@@H]1CCCN1C [II-16]
1

Please answer likewise for CO[C@H]1CCN(C)[C@@H]1[C@H](C)Oc1nc(-c2onc3c2CCC[C@@]32CCCc3sc(N)c(C#N)c32)nc2c1n(C)c(=O)n2[C@H]1COC[C@@H](C)C1 [I-51]
0

Please answer likewise for CO[C@H]1CCN(C)[C@@H]1[C@H](C)Oc1nc(-c2onc3c2CCC[C@@]32CCCc3sc(N)c(C#N)c32)nc2c1CN(C1COC1)C[C@]21CCOC1 [I-57]
0

Please answer likewise for C[C@H](Oc1nc(-c2onc3c2CCC[C@@]32CCCc3sc(N)c(C#N)c32)nc2c1n(C)c(=O)n2[C@@]12COC[C@@H]1C2)[C@@H]1CCCN1C [I-29]
1

---

System: MKN1 cells
Protocol Text: MKN1 CTG proliferation assay (120 h) (gastric cancer, wt amplified)
Assay type: cell-based
Condition Context: Homo sapiens, MKN-1
Parameter: log10 of IC50. Scope: all listed entries.
log10 IC50, nM

Field: example entries. Status: answers known.
Mol: Cc1nc2c(O[C@@H](C)[C@@H]3CCCN3C)nc(-c3onc4c3CCC[C@@]43CCCc4sc(N)c(C#N)c43)nc2n1[C@@H]1CCOC1
log10 of IC50: 1.46

Mol: C[C@H](Oc1nc(-c2onc3c2CCC[C@@]32CCCc3sc(N)c(C#N)c32)nc2c1CN(C1COC1)C[C@]21CCOC1)[C@@H]1CC[C@H](C)N1C
log10 of IC50: 1.26

Mol: CO[C@H]1C[C@H](n2c(=O)n(C)c3c(O[C@@H](C)[C@@H]4CCCN4C)nc(-c4onc5c4CCC[C@@]54CCCc5sc(N)c(C#N)c54)nc32)C1
log10 of IC50: 2.55

Here is the next item to consider.
Please report the recorded log10 of IC50 for C[C@H](Oc1nc(-c2onc3c2CCC[C@@]32CCCc3sc(N)c(C#N)c32)nc2c1n(C)c(=O)n2[C@@H]1CCOC1)[C@@H]1C[C@@H](F)CN1C .
1.15

---

Parameter: HLM QH. Scope: all listed entries.
Protocol Text: Metabolic (microsomal) stability assay, human liver microsomes (HLM)
Type: in vitro ADME
Condition Context: 1 μM test compound, predicted clearance as percent of liver blood flow

Compound: C[C@H](Oc1nc(-c2onc3c2CCC[C@@]32CCCc3sc(N)c(C#N)c32)nc2c1CN(C1COC1)C[C@]21CCOC1)[C@@H]1CCCN1C [I-56]
Parameter Measured: HLM QH
Result: <24%
//
Compound: C[C@H](Oc1nc(-c2onc3c2CCC[C@@]32CCCc3sc(N)c(C#N)c32)nc2c1n(C)c(=O)n2[C@H]1CC2CCC1O2)[C@@H]1CCCN1C (stereo partly drawn) [I-17]
Parameter Measured: HLM QH
Result: <24%

Here is the next item to consider.
Please report the recorded HLM QH for C[C@H](Oc1nc(-c2noc3c2CCC[C@@]32CCCc3sc(N)c(C#N)c32)nc2c1n(C)c(=O)n2[C@H]1CO[C@@H](C)C1)[C@@H]1CCCN1C [II-5] .
36%
